# Test system: Mus musculus
# ASSAY_OVERVIEW: Concentration of 9-[4-Hydroxy-3-(hydroxymethyl)but-1-yl)guanine in blood of mice after 1 hour upon oral administration
# Assay type: functional, organism-based
So basically: Concentration at 10 µM or higher? That is rule met. Lower than 10 µM? That is rule not met.

molecule=CC(C)Oc1nc(N)nc2c1ncn2CCC(CO)CO target_desc="Mus musculus" qualitative_label="rule not met"
molecule="Nc1ncc2ncn(CCC(CO)CO)c2n1 [6-DEOXY PENCICLOVIR]" target_desc="Mus musculus" qualitative_label="rule met"
molecule="Nc1ncc2ncn(CCC(CO)COP(=O)(O)O)c2n1 (configuration not stated)" target_desc="Mus musculus" qualitative_label="rule met"
molecule=CC1(C)OCC(CCn2cnc3cnc(N)nc32)CO1 target_desc="Mus musculus" qualitative_label="rule met"
molecule=CCCCOc1nc(N)nc2c1ncn2CCC(CO)CO target_desc="Mus musculus" qualitative_label="rule not met"
molecule="Nc1ncc2ncn(CCC(CO)COC(=O)c3ccccc3)c2n1 (configuration not stated)" target_desc="Mus musculus" qualitative_label="rule met"
molecule=Nc1nc(OCc2ccccc2)c2ncn(CCC(CO)CO)c2n1 target_desc="Mus musculus" qualitative_label="rule not met"
molecule="CCCC(=O)OCC(CO)CCn1cnc2cnc(N)nc21 (configuration not stated)" target_desc="Mus musculus" qualitative_label="rule met"
molecule=Nc1nc(O)c2ncn(CCC(CO)CO)c2n1 target_desc="Mus musculus" qualitative_label="rule not met"
molecule=Nc1nc(Oc2ccccc2)c2ncn(CCC(CO)CO)c2n1 target_desc="Mus musculus" qualitative_label="rule not met"
molecule="CC(=O)OCC(CO)CCn1cnc2cnc(N)nc21 (configuration not stated)" target_desc="Mus musculus" qualitative_label="rule met"
molecule="CC(=O)OCC(CCn1cnc2cnc(N)nc21)COC(C)=O [FAMCICLOVIR]" target_desc="Mus musculus" qualitative_label="rule met"

###

# Tested on: Mus musculus
# ASSAY_OVERVIEW: Concentration of 9-[4-Hydroxy-3-(hydroxymethyl)but-1-yl)guanine in blood of mice after 1 hour upon oral administration
# Assay type: functional, organism-based
Label 1.0 when Concentration < 20 µM; otherwise 0.0.

compound=CCC(=O)OCC(CCn1cnc2cnc(N)nc21)COC(=O)CC qualitative_label=0.0
compound="COC(=O)OCC(CO)CCn1cnc2cnc(N)nc21 (stereo not given)" qualitative_label=0.0
compound=CCOc1nc(N)nc2c1ncn2CCC(CO)CO qualitative_label=1.0
compound=COc1nc(N)nc2c1ncn2CCC(CO)CO qualitative_label=1.0
compound="Nc1ncc2ncn(CCC3COP(=O)(O)OC3)c2n1 (stereo not given)" qualitative_label=1.0

###

# ASSAY_OVERVIEW: Solubility in water
# Assay type: physicochemical
# CONDITIONS_USED: read-out: S
MEASUREMENT_NAME: solubility

molecular_string=CC(=O)OCC(CCn1cnc2cnc(N)nc21)COC(C)=O reported_measurement="20 mg/mL"
